Test system: THP-1 cells
Settings: read-out: Effective concentration 50
Reported property: pEC50
The scale used: pEC50 is minus the common logarithm of the concentration in molar units.

INPUT: Tell me the measured pEC50 of Peptide LEDGPKFL + Zinc [IMMP] , please.
OUTPUT: 11.00
